# Test system: EKVX NSCLC
# test.details: NCI tumour cell line growth inhibition, 48 h
observable: TGI

> print(dat)
                                    compound  reported.measurement
 1  COc1ccc(/C=C/C(=O)c2c(-c3ccccc3)nn(C)c(=O)c2N2CCCC2)cc1              > 100 µM
 2  CS(=O)(=O)c1nccc(-c2c(-c3cccc(OCc4ccccc4)c3)nc3sccn23)n1              > 100 µM
 3  COc1cccc(-c2cc(=O)c3cc(C)c(C)c(C(=O)O)c3o2)c1              > 100 µM
 4  COc1c(N2CCCCC2)c2c(=O)c3ccccc3oc2c2cc(C)oc12               89.1 µM
 5                         NCc1ccc(O)c(O)c1O              > 100 µM
 6           Cc1nc2ccc(F)cc2c2c1CCN2c1ccccc1               94.9 µM
 7  Cc1cc(C)nc(NS(=O)(=O)c2ccc(Nc3nc4nc(NCc5ccccc5)nc(-c5ccc(O)cc5)c4c(=O)[nH]3)cc2)n1              > 100 µM
 8        CC1OC1P(=O)(O)O (stereo not given)              > 100 µM
 9  Nc1c(C(=O)c2ccc(Cl)cc2)[nH]c(Nc2ccc(Cl)cc2)c1C(=S)Nc1ccccc1               19.5 µM
10  CC(=O)O[C@H]1C[C@H]2[C@@H]([C@H](OC(C)=O)C[C@@H]3CC4(CC[C@@]32C)OOC2(CCCCC2)OO4)[C@@H]2CC[C@H]([C@H](C)CCC(N)=O)[C@@]12C               3.23 µM
11  C/C(=N\NC(=O)C[n+]1ccccc1)c1sc(-c2nc(C)c(/C(C)=N/NC(=O)C[n+]3ccccc3)s2)nc1C              > 100 µM
12         COC(=O)CCC(=O)Nc1cccc(C(F)(F)F)c1              > 100 µM
13  Nc1ncnc2c1ncn2C1OC(CO)CC1O (stereo not given)              > 100 µM
14  CC(=O)Oc1c(C)cc2c(c1C)C(C)(C)CN2C(=O)C(C)(C)C              > 100 µM
15  CSC1=C(C(=O)N(COCC[Si](C)(C)C)c2ccccc2Br)CCC(C(C)(C)C)C1 (stereo not given)               37.8 µM

###

Each record here notes measured TGI.
# Test system: NCI-H226 lung
# test.details: NCI tumour cell line growth inhibition, 48 h
Where a SMILES comes first, the peptide text is derived from it. [ ]: non-standard residue; d: D form. The star is where a group is joined. Bn2Val = CC(C)[C@@H](C(=O)*)N(Cc1ccccc1)Cc1ccccc1; NHPiperonyl = c1cc2c(cc1CN*)OCO2; NMeV = CN[C@H](C(=O)O)C(C)C; dNMeA = CN[C@H](C)C(=O)O

compound	TGI
C/C(=N\N)C(CN1CCCCC1)C(c1ccccc1)c1c(O)c2ccccc2oc1=O (stereo unspecified)	> 100 µM
Cc1ccc2oc(=O)cc(CC(=O)O)c2c1	> 100 µM
COc1cc(C(=O)O)cc2c1[nH]c1ccccc12	> 25 µM
CC(C)[C@H](NC(=O)[C@H](C(C)C)N(Cc1ccccc1)Cc1ccccc1)C(=O)N(C)[C@H](C(=O)N1CCC[C@H]1C(=O)N(C)[C@H](C)C(=O)NCc1ccc2c(c1)OCO2)C(C)C (Bn2Val-V[NMeV]P[dNMeA]-NHPiperonyl)	> 100 µM
O=C(/C=C/c1ccccc1)Nc1ncc(Cc2ccccc2)s1	> 20.8 µM
O=C1C2c3[nH]c4ccccc4c3C3CCC(c4ccccc4)CC3C2C(=O)N1c1ccccc1 (stereo unspecified)	> 100 µM

###

# Tested on: K-562 leukemia
# test.details: NCI tumour cell line growth inhibition, 48 h
observable: TGI

> print(dat)
                                    compound  target.or.test.system  observable  reported.measurement
 1                N=C(N)SC(c1ccccc1)c1ccccc1         K-562 leukemia         TGI               85.3 µM
 2  COc1cc(/C=C/C(=O)c2ccc(F)cc2)ccc1OCCCCOc1cc2c(cc1OC)C(=O)N1CCCC1C=N2 (stereo unspecified)         K-562 leukemia         TGI               4.05 µM
 3  COc1cccc(-c2cc(=O)c3cc(C)c(C)c(C(=O)O)c3o2)c1         K-562 leukemia         TGI              > 100 µM
 4  OCC(O)C(O)C(O)c1nn[nH]n1 (stereo unspecified)         K-562 leukemia         TGI              > 100 µM
 5  C[C@]12CC/C(=N\O)C[C@@H]1CC[C@@H]1[C@@H]2CC[C@]2(C)/C(=N/O)CC[C@@H]12         K-562 leukemia         TGI              > 100 µM
 6               N=C(N)c1ccc(CS(=O)(=O)F)cc1         K-562 leukemia         TGI              > 100 µM
 7                  NNC(=O)CC(=O)Nc1ccccc1Cl         K-562 leukemia         TGI              > 100 µM
 8      CC1OC1P(=O)(O)O (stereo unspecified)         K-562 leukemia         TGI              > 100 µM
 9  O=C(Nc1ccc(-n2ccc3c(NC(=O)c4ccccc4)ncnc32)cc1)Nc1ccc(Cl)c(C(F)(F)F)c1         K-562 leukemia         TGI               5.04 µM
10  CC(/C=C/C=C\C=C\C=C(/C)C(=O)NC(C)CO)=C\C(C)C(O)/C(C)=C/C(C)CCc1ccccc1 (stereo unspecified)         K-562 leukemia         TGI             > 53.6 µM
11     O=C(/C=C/c1ccccc1)Nc1ncc(Cc2ccccc2)s1         K-562 leukemia         TGI             > 37.1 µM
12                      Clc1cc2nc[nH]c2cc1Cl         K-562 leukemia         TGI              > 100 µM
13  CCOC(=O)C1C(c2ccco2)C2(C#N)C(=N)OC1(C)C2(C#N)C#N (stereo unspecified)         K-562 leukemia         TGI              > 100 µM
14           Cc1c2ccccc2c(CSC(=N)N)c2ccccc12         K-562 leukemia         TGI                1.4 µM
15  COC(=O)C12OCC34C(CC5C(C)C6=CC(=O)OC6=CC5(C)C3C(O)C1O)OC(=O)C(OC(C)=O)C24 (stereo unspecified)         K-562 leukemia         TGI               54.3 µM
16  O=c1[nH]c(=S)n(-c2cccc3ccccc23)c(O)c1/C=C1\C=Nc2ccccc21         K-562 leukemia         TGI               7.11 µM
17                       CCOc1cccc2sc(N)nc12         K-562 leukemia         TGI              > 100 µM
18  CCOC(=O)CCC(NC(=O)C(CCC(=O)OCC)NC(=O)C(Cc1ccc([N+](=O)[O-])cc1)NC(C)=O)C(=O)NNC(=O)OC(C)(C)C (stereo unspecified)         K-562 leukemia         TGI              > 100 µM
19  Cc1cccc(C)c1NC(=O)C(=O)C(c1ccccc1Cl)S(=O)(=O)Cc1ccccc1Cl (stereo unspecified)         K-562 leukemia         TGI              > 100 µM
20  O=[N+]([O-])c1ccc(CSc2c3ccccc3nc3ccccc23)cc1         K-562 leukemia         TGI             > 34.9 µM
21  CC[C@]12C=CCN3CC[C@@]4(c5ccc(OC)cc5N(C)[C@H]4[C@@](O)(C(=O)OC)[C@@H]1OC(=O)CCCC[P+](c1ccccc1)(c1ccccc1)c1ccccc1)[C@@H]32         K-562 leukemia         TGI               11.4 µM
22  COc1cccc(-c2cc(C(=O)Nc3ccc(Cl)cc3)nc(N)n2)c1         K-562 leukemia         TGI              > 100 µM
23                    Nc1nc(=O)c2[nH]cnc2n1O         K-562 leukemia         TGI              > 100 µM
24  Cc1cc(Cl)ccc1NC(=O)C1C(=O)C(=O)N(c2ccc(Cl)cc2C)C1=O (stereo unspecified)         K-562 leukemia         TGI              > 100 µM
25  Clc1ccc(C2ON=C(c3ccccc3)N2C23CC4CC(CC(C4)C2)C3)cc1Cl (stereo unspecified)         K-562 leukemia         TGI               > 10 µM
26  CC(=O)NC1C(O)C(O)C(CO)OC1n1nc(SCc2ccccc2)c(=O)[nH]c1=O (stereo unspecified)         K-562 leukemia         TGI              > 100 µM
27  O=C(N/C(=C\NC1=NCCS1)C(=O)N1CSC[C@@H]1C(=O)O)c1ccccc1         K-562 leukemia         TGI              > 100 µM
28  O=S(Nc1ccccc1)c1ccccc1Oc1ccccc1 (stereo unspecified)         K-562 leukemia         TGI              > 100 µM
29  C=CC(C)CCC(C/C=C(\C)CCCC(C)C)C(=C)CCCC(C)C (stereo unspecified)         K-562 leukemia         TGI              > 100 µM
30     O=C(O)c1[nH]c(=O)[nH]c(=O)c1CN1CCCCC1         K-562 leukemia         TGI              > 100 µM
31  CCOc1ccc(NC(=O)/C(Cc2nc3ccccc3[nH]c2=O)=N\O)cc1         K-562 leukemia         TGI              > 100 µM
